The values you see were collected from the NIST ThermoML archive (doi:10.1021/je060137q).

# stated.conditions: 313.15 K; 101 kPa; Liquid
± gives the expanded uncertainty stated by the source.
readout.name: mass density

1. Cc1ccc(C)c(C)c1 [1,2,4-trimethylbenzene]; 859.5 ± 0.49 kg/m3
2. COC(=O)OC [dimethyl carbonate]; 1044.63 ± 0.3 kg/m3
3. CCOC(=O)OCC [diethyl carbonate]; 952.15 ± 0.23 kg/m3
4. Cc1cc(C)cc(C)c1 [1,3,5-trimethylbenzene]; 848.73 ± 0.47 kg/m3

====

Documented mass density across a set of compounds
# stated.conditions: 298.15 K; 101 kPa; Liquid
± gives the expanded uncertainty stated by the source.
readout.name: mass density

1) CCOC(=O)OCC [diethyl carbonate]; 969.12 ± 0.21 kg/m3
2) Cc1cc(C)cc(C)c1; 861.04 ± 0.46 kg/m3
3) COC(=O)OC [dimethyl carbonate]; 1062.97 ± 0.32 kg/m3
4) Cc1ccc(C)c(C)c1; 871.64 ± 0.48 kg/m3
